- System: CEM cells HIV-1 protection, formazan growth assay
- method.summary: NCI AIDS Antiviral Assay
- condition.set: measured here: growth of uninfected CEM cells
endpoint.label: pIC50
// pIC50: -log10(molar conc.)

QUERY: Provide only the value of recorded pIC50 for CC(=O)NC1C(OCc2ccccc2)OC(CO)C(O)C1OCC(=O)N1CCCC1C(=O)NC(CCC(=O)NCCCCCNc1c2ccccc2nc2cccc([N+](=O)[O-])c12)C(N)=O (stereo unspecified)
RESULT: 6.68

QUERY: Supply reported pIC50 belonging to this molecule: O=C1c2cccc3cccc(c23)C(=O)N1O
RESULT: 5.13

QUERY: Using the record for ClC(Cl)=CC(Cl)(Cl)C(Cl)(Cl)C(Cl)(Cl)Cl , state its measured pIC50.
RESULT: 5.26

---

Please provide measured EC50 for the entries that follow.
- System: CEM cells HIV-1 protection, formazan growth assay
- method.summary: NCI AIDS Antiviral Assay
- Protocol: The ability of compounds to protect human CEM cells from HIV-1 infection is measured as a screen for new compounds capable of inhibiting the HIV virus. Five concentrations of drug were tested on uninfected and infected cells and cell growth was measured using a soluble formazan assay. […] Compounds that provided at least 50% protection were retested. Compounds that provided at least 50% protection on retest were listed as moderately active. […]

QUERY: Answer with reported EC50 of Oc1ccc(Cl)cc1-c1[nH]c(=S)nc(-c2ccccc2)c1Cl
RESULT: > 200 µM

QUERY: State its EC50 for this compound: CC(=O)O/N=C/c1ncccc1OC(C)=O
RESULT: > 1120 µM

QUERY: // Input: N[C@@H](Cc1ccc(O)c(O)c1)C(=O)O . Output its EC50 only.
RESULT: > 200 µM

QUERY: Given CSc1nc(SC)c2ncn(C3CC(Oc4ccc(C)cc4)C(COc4ccc(C)cc4)O3)c2n1 (stereo not given) , respond with its EC50.
RESULT: > 100 µM

QUERY: Tell me its EC50 given CC1(C)OC2OC3C(I)CN(C(=O)OCc4ccccc4)C3C2O1 (stereo not given) as the entry.
RESULT: > 200 µM

QUERY: Find the measured EC50 of COC(=O)c1cc2c(n1S(=O)(=O)c1ccc(C)cc1)C(=O)C(=O)c1[nH]cc(C(=O)OCc3ccccc3)c1-2 and report it.
RESULT: > 200 µM

QUERY: Write down EC50 measured for item CC(C)Oc1c(O)c2c3c(oc(=O)n3C=CC2c2ccccc2)c1OC(C)C (stereo not given)
RESULT: > 200 µM

QUERY: In one line, give reported EC50 of the entry COc1cc(/C=C2\C(=O)N(c3ccc(NC(C)=O)cc3)C(c3ccccc3)S2(=O)=O)cc(OC)c1OC (stereo not given) .
RESULT: > 200 µM

QUERY: Look up and report measured EC50 for this entry: Nc1ccc2ncc(Nc3ccc(Cl)c(Cl)c3)nc2c1
RESULT: > 8.91 µM

QUERY: For the compound C=C1CC(C)(Cn2c(N)nc3nc[nH]c3c2=O)OC1=O (stereo not given) , report EC50.
RESULT: > 200 µM

---

For each of the compounds below, state its IC50.
- Test system: CEM cells HIV-1 protection, formazan growth assay
- method.summary: NCI AIDS Antiviral Assay
- condition.set: measured here: growth of uninfected CEM cells
Your answer should be a plain number; it is taken to be in µM.

QUERY: For the compound CC(C)(C)[Si](C)(C)OCC1OC(n2ccc(=O)[nH]c2=O)C(O[Si](C)(C)C(C)(C)C)C12OC2C(=O)NN (stereo unspecified) , give its measured IC50 value.
RESULT: 7.41

QUERY: Look up and state reported IC50 for CC(C)Oc1c(O)c2c3c(oc(=O)n3C=CC2c2ccccc2)c1OC(C)C (stereo unspecified)
RESULT: 21.9

QUERY: Give the reported value of IC50 for this record: CC1=C(C(=O)NC2CCCCC2)CC(C(=O)NC2CCCCC2)=C(C)N1
RESULT: 72.4

QUERY: Give the value of IC50 reported for the following: CCCCCC12OCC(C)(C)N1O2 (stereo unspecified)
RESULT: 126

QUERY: Entry C/C(N)=C\c1nc(=O)ccs1 needs its IC50 filled in; supply it.
RESULT: 129

QUERY: Let me know recorded IC50 for COc1cnnc2ccccc12 , thanks.
RESULT: 603
